Parameter half-life: see the listing below.
assay: Liver microsome stability test, human; type: in vitro ADME; details: human liver microsomes; human (H) liver microsome; read-out: Liver microsome stability (T1/2, min)
Enter your answer as a number in min; do not include the unit.

Examples from the recorded data:
CC(C)CC(NC(=O)[C@H](CC1CC1)NC(=O)[C@@H]1CCN1c1ncc(F)cn1)B(O)O (stereo partly shown): 108
CC(C)CC(NC(=O)CNC(=O)[C@@H]1CCN1c1ccc(F)cc1)B(O)O (single isomer, unassigned): 74.3
CC(C)CC(NC(=O)[C@H](CC1CC1)NC(=O)[C@@H]1CCN1c1nc(C(F)(F)F)cs1)B(O)O (stereo partly shown): 27.4
CC(C)CC(NC(=O)CNC(=O)[C@@H]1CCN1c1ccc(C(F)(F)F)cn1)B(O)O (stereo partly shown): 51.5
CC(C)CC(NC(=O)CNC(=O)[C@@H]1CCN1c1ccc(F)cn1)B(O)O (single isomer, unassigned): 77

Now consider the entry below.
Record CC(C)CC(NC(=O)CNC(=O)[C@@H]1CCN1c1ccc(F)cc1F)B(O)O (single isomer, unassigned) . Reported half-life: 67.4
